Value source: patent US9675606B2

assayed-system: VEGFR-3 (Homo sapiens)
Sequence (P35916 25-1363, species assumed): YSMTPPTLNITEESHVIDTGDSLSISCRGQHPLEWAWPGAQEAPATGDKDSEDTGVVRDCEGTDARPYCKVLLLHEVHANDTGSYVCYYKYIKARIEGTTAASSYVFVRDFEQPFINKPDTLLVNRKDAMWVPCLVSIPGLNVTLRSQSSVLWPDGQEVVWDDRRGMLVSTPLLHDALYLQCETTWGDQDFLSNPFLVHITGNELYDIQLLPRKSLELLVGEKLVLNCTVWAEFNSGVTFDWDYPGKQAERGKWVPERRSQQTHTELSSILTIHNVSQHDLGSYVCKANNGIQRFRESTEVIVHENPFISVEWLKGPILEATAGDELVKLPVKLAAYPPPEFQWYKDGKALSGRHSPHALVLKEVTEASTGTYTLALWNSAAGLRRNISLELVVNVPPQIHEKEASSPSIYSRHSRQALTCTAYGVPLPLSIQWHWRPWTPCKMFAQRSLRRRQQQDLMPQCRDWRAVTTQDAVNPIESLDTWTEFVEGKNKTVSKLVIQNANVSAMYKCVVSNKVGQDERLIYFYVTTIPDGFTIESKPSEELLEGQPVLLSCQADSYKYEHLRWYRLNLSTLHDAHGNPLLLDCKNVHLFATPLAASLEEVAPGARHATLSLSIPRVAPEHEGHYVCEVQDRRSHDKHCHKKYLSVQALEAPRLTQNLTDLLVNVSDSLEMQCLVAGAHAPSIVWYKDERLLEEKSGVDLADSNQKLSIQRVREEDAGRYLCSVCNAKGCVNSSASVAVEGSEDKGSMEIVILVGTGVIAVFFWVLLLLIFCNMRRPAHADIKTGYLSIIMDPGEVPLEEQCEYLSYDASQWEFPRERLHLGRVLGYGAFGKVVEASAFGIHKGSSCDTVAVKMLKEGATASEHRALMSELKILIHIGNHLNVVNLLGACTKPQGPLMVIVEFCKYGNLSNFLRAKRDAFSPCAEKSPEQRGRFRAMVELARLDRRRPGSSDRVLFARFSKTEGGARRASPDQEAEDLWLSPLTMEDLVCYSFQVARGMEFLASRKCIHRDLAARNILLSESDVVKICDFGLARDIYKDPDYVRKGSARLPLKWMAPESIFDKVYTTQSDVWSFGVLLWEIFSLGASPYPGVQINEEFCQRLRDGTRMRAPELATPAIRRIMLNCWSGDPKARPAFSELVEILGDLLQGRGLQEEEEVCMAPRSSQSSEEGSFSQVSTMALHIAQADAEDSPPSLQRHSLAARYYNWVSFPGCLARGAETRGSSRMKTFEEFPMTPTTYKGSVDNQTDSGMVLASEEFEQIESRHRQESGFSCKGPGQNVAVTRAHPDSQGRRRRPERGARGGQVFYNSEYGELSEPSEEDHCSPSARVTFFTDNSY
measurement-protocol: Effect of compounds on VEGFR-3 auto-phosphorylation in HEK cells (ELISA)
cond: autophosphorylation of VEGFR-3-Flag overexpressed in HEK293T cells, 1 h incubation with compound
pIC50: −log10 of the molar value.
Parameter threshold = 7. Response is 1 (yes) when pIC50 meets or exceeds it, else 0 (no).

CCn1c(N)c(-c2ncc[nH]2)c(=O)c2ccc(C#CC(C)O)nc21 (racemic) :: 1 (yes)
CCn1c(N)c(-c2ncc[nH]2)c(=O)c2ccc(C#C[C@@](C)(O)COC)nc21 :: 1 (yes)
CCC(O)C#Cc1ccc2c(=O)c(-c3ncc[nH]3)c(N)n(CCCOC)c2n1 (racemic) :: 0 (no)

Exam item: Does the molecule CCn1c(N)c(-c2ncc[nH]2)c(=O)c2ccc(C#CC(O)(c3ccccc3)C(F)(F)F)nc21 (racemic) have recorded pIC50 that is 7 or more?
Marked response: 1 (yes)

Exam item: Item: CCn1c(N)c(-c2nc(C)c[nH]2)c(=O)c2ccc(C#C[C@@](C)(O)COC)nc21
Marked response: 1 (yes)

Exam item: Item: CCn1c(N)c(-c2ncc[nH]2)c(=O)c2ccc(C#CC(O)C(C)C)nc21 (racemic)
Marked response: 0 (no)

Exam item: Item: CCC(O)C#Cc1ccc2c(=O)c(-c3ncc[nH]3)c(N)n(C3CCCC3)c2n1 (racemic)
Marked response: 1 (yes)
